Biological target: DNA repair protein RAD52 homolog (Homo sapiens, UniProt P43351)
Sequence (P43351 whole entry): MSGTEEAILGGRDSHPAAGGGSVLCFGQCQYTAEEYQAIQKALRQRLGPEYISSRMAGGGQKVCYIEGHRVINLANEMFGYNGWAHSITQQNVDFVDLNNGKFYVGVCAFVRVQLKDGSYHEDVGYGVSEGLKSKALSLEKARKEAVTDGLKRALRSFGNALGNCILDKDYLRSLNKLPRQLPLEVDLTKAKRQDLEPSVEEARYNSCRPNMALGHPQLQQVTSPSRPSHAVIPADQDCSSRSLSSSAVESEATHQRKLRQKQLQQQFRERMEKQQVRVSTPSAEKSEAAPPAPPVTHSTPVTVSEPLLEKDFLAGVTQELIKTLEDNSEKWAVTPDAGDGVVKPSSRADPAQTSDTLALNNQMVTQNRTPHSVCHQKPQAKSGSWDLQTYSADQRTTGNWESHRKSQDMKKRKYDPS
Type: functional, biochemical
Active and inactive are the calls of the source.
MEASURE NAME: AC50

The following compounds have reported results that may help.
smiles_notation=COc1cccc2sc(N(CCCN(C)C)C(=O)c3sc4ccccc4c3Cl)nc12 result="6.13 µM (active)"
smiles_notation=CC1(C)Nc2cccc3cccc(c23)N1 result="25.6 µM (active)"

In plain terms, `CN(C)c1ccc(/C=C/c2cc[n+](C)c3ccccc23)cc1` has a documented AC50 of 1.23 µM (active)

In plain terms, `CN(C)/C=N/c1ccc2[nH]c3c4ccccc4nc-3cc2c1` has a documented AC50 of 3.13 µM (active)
